Biological target: GABA-A receptor; alpha-1/beta-3/gamma-2 (Homo sapiens, UniProt P14867+P18507+P28472)
Sequence (P14867 whole entry): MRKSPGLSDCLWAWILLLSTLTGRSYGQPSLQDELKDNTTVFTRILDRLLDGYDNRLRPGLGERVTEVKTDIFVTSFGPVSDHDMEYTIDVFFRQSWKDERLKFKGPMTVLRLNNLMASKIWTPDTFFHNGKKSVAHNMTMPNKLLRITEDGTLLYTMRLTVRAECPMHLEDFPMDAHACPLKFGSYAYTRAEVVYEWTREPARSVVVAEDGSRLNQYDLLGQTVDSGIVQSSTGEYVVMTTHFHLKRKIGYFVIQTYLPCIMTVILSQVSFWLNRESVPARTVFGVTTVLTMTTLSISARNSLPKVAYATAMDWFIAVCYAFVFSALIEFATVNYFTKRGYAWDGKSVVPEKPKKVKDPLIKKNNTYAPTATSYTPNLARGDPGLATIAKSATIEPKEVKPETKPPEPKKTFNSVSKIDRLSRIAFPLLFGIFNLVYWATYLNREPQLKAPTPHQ
Sequence (P18507 whole entry): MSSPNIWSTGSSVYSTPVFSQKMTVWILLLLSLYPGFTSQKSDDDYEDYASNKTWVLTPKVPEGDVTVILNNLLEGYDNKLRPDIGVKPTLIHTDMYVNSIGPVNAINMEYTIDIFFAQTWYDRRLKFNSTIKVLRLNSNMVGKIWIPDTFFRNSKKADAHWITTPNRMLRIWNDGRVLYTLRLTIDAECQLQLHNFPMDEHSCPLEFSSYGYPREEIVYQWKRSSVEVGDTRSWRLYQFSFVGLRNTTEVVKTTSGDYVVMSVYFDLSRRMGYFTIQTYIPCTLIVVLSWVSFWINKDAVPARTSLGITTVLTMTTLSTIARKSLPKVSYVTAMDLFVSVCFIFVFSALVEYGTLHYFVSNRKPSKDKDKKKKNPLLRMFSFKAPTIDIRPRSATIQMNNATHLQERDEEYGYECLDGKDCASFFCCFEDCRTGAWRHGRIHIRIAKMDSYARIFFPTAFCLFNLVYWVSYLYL
Sequence (P28472 whole entry): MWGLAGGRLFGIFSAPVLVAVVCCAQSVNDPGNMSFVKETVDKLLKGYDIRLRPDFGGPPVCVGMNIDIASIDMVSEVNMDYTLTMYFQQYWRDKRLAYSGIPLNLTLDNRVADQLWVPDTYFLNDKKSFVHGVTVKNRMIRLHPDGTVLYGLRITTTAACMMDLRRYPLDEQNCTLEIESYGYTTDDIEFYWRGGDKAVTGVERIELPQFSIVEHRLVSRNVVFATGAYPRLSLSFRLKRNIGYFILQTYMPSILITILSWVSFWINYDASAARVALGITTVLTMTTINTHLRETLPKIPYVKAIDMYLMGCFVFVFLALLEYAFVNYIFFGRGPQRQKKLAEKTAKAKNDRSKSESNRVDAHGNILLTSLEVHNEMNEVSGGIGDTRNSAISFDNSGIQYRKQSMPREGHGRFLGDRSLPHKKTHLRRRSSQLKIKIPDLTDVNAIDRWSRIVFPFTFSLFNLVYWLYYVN
Assay: Binding affinity measured using LtK- cell membranes expressing GABA alpha-1-beta-3-gamma-2 receptor
Catalogue of compounds with associated pKi
# log scale: pKi equals minus log10 of the concentration in mol/L

# compound, recordedMetric, testValue
data = [
    ("CCC(C)Oc1cc2c3ccccc3nc-2c[nH]1 (centres undefined)", "pKi", 6.61),
    ("CCOC(=O)c1ncc2[nH]c3ccc(OCc4ccccc4)cc3c2c1COC", "pKi", 8.39),
    ("CCOC(=O)c1[nH]cc2nc3ccc(OCc4cccc5ccccc45)cc3c-2c1COC", "pKi", 7.81),
    ("CCCOc1ccc2[nH]c3cnc(OCCC)c(COC)c3c2c1", "pKi", 7.61),
    ("CC(C)(C)OC(=O)c1cc2c3ccccc3nc-2c[nH]1", "pKi", 9.14),
]

Task item: Using the record for `c1ccc(COc2cc3c4ccccc4nc-3c[nH]2)cc1` , report its pKi.
Reply: 6.08

Task item: For the compound shown here, `CCOC(=O)c1[nH]cc2nc3ccc(OCc4ccccc4)cc3c-2c1CC` , give the reported pKi.
Reply: 7.68

Task item: So what's the measured pKi for this one? `CCOC(=O)c1[nH]cc2nc3cc(OC)c(OC)cc3c-2c1CC`
Reply: 8.21

Task item: Endpoint output: pKi of `CC(C)COc1cc2c(cn1)[nH]c1ccccc12` . Value?
Reply: 7.60

Task item: Fill blank: measured pKi of the compound `CCCCOc1cc2c(cn1)[nH]c1ccccc12` is ____.
Reply: 7.43

---

Target: GABA-A receptor; alpha-3/beta-3/gamma-2 (Homo sapiens, UniProt P18507+P28472+P34903)
Sequence (P18507 whole entry): as the sequence (P18507 whole entry) above
Sequence (P28472 whole entry): as the sequence (P28472 whole entry) above
Sequence (P34903 whole entry): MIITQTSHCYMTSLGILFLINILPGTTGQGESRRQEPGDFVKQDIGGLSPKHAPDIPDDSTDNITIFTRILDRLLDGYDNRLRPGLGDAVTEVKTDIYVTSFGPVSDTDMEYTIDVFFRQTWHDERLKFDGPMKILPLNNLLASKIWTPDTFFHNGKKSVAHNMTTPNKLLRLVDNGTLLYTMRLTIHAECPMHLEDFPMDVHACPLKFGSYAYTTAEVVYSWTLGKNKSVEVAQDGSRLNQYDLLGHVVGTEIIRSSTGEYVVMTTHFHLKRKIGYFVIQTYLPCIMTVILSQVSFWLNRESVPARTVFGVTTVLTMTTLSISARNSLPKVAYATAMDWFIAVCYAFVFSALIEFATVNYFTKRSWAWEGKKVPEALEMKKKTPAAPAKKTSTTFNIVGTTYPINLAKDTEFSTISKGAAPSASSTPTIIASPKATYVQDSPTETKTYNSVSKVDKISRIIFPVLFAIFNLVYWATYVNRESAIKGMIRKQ
Experiment: Binding affinity measured using LtK- cell membranes expressing GABA alpha-3-beta-3-gamma-2 receptor
pKi: −log10 of the molar value.
# key: entry, value: pKi

# annotated cases, reported pKi shown
# chemSmiles, targetEntity, pKi
data = [
    ("c1ccc(COc2cc3c4ccccc4nc-3c[nH]2)cc1", "GABA-A receptor; alpha-3/beta-3/gamma-2 (Homo sapiens, UniProt P18507+P28472+P34903)", "< 5.52"),
    ("CCCCCCCCOc1ccc2c(c1)c1c(COC)c(C(=O)OCC)ncc1n2C", "GABA-A receptor; alpha-3/beta-3/gamma-2 (Homo sapiens, UniProt P18507+P28472+P34903)", "< 5.52"),
]

Now examine the next entry.
Task item: Entry `CCc1c(OC)[nH]cc2nc3cc(OC)c(OC)cc3c1-2` has what pKi?
Reply: < 6.52

---

Target: GABA-A receptor; alpha-5/beta-3/gamma-2 (Homo sapiens, UniProt P18507+P28472+P31644)
Sequence (P18507 whole entry): as the sequence (P18507 whole entry) above
Sequence (P28472 whole entry): as the sequence (P28472 whole entry) above
Sequence (P31644 whole entry): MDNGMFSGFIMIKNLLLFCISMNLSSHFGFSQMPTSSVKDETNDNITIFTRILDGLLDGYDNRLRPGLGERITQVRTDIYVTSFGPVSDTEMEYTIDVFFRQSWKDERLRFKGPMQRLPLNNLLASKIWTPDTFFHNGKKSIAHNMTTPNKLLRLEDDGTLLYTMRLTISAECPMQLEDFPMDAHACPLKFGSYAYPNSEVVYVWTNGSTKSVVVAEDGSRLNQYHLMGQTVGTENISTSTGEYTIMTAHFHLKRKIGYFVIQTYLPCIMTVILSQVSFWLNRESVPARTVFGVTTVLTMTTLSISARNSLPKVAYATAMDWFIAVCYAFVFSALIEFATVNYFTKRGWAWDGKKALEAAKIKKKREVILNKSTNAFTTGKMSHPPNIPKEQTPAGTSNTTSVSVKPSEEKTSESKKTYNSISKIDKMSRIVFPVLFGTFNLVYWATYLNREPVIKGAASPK
Assay: Binding affinity measured using LtK- cell membranes expressing Gamma-aminobutyric acid A receptor alpha-5-beta-3-gamma-2
pKi: −log10 of the molar value.
recordedMetric: pKi

# chemSmiles, targetEntity, testValue
data = [
    ("CCCCCCCCOc1ccc2c(c1)c1c(COC)c(C(=O)OCC)ncc1n2C", "GABA-A receptor; alpha-5/beta-3/gamma-2 (Homo sapiens, UniProt P18507+P28472+P31644)", "< 5.52"),
    ("CCOC(=O)c1ncc2c(c1CC)c1ccccc1n2C", "GABA-A receptor; alpha-5/beta-3/gamma-2 (Homo sapiens, UniProt P18507+P28472+P31644)", "< 6.00"),
]

Now look at this entry.
Task item: Returns the measured pKi for the input molecule. Input: `CCOc1[nH]cc2nc3cc(OC)c(OC)cc3c-2c1CC`
Reply: < 6.52
